Numbers sourced from PubChem BioAssay AID624413.

Assay: Jurkat T cell cytotoxicity, cytotoxicity control for T. brucei MetRS inhibitor project, luminescence, high throughput (AID 624413);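 note: 0% = vehicle and 100% = reference inhibitor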
Conditions: Jurkat cells viability, ATP luminescence; at 8.3 µM
About 160 (11%) of roughly 1,400 compounds were called active. Cut-off read from the data, not from the text of the source: active = inhibition above about 15%; inactive = the rest. These entries were drawn from the full list.
Give your call using only these classes: active, inactive

Task: Query: recorded result category for `c1ccc2cc3c(NCCN4CCOCC4)ccnc3cc2c1` in this test
Result: active

* * *

Assay: Jurkat T cell cytotoxicity, cytotoxicity control for T. brucei MetRS inhibitor project, luminescence, high throughput (AID 624413);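 note: 0% = vehicle and 100% = reference inhibitor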
Conditions: Jurkat cells viability, ATP luminescence; at 8.3 µM; active compounds read high
About 160 (11%) of roughly 1,400 compounds were called active. These entries were drawn from the full list.
assay_metric: inhibition (%)
A number alone suffices; assume %.

Observe how each entry below is paired with its result.
O=[N+]([O-])c1ccc(N2CCN(c3ccc(O)cc3)CC2)c(Cl)c1
1.76
Cc1c(CN2CCC(CO)(CCOc3ccccc3)CC2)[nH]c2ccc(Cl)cc12
13.6
OC(c1cc(Cl)cc(Cl)c1)c1ncc(-c2ccccc2C(F)(F)F)[nH]1 (stereo not given)
6.67

Task: Please report the recorded inhibition for `c1ccc2cc3[nH]c(CN4CCCCC4)nc3cc2c1` .
Result: -5.35

Task: # lookup: inhibition of CCCCCCCC[n+]1cccc(C(=O)N2c3c(nc(N)[nH]c3=O)NC(C)C2C)c1 (stereo not given)
Result: 10

Task: Look up inhibition for this compound: `O=C(CC(=O)Nc1ccc(Cl)c(Cl)c1)N/N=C/c1ccc(O)cc1`
Result: 3.68

* * *

Assay: Jurkat T cell cytotoxicity, cytotoxicity control for T. brucei MetRS inhibitor project, luminescence, high throughput (AID 624413);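 note: 0% = vehicle and 100% = reference inhibitor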
Conditions: Jurkat cells viability, ATP luminescence; at 8.3 µM
Hit rate of the full screen: of about 1,400 compounds, about 160 (11%) were called active. No stated cut-off is given here; in the data, active means inhibition above about 15%; inactive means the rest. A selection follows.
Just give me one of these, please: active, inactive

Worked cases, answers included:
COc1ccc(OCC(O)CNC(=O)Nc2ccc(Cl)cc2)cc1 (stereo unspecified)
inactive
Cc1ccc(N2C(=O)CC(NCc3ccc4c(c3)OCO4)C2=O)cc1Cl (stereo unspecified)
inactive
O=C(OCc1nc2ccccc2[nH]1)C1CCCCC1
inactive

As a next step, examine the compound that follows.
Task: Tell me the assay call for O=C(NCC(O)c1nc2ccccc2[nH]1)c1ccc(Br)cc1 (stereo unspecified) please.
Result: inactive

* * *

Assay: Jurkat T cell cytotoxicity, cytotoxicity control for T. brucei MetRS inhibitor project, luminescence, high throughput (AID 624413);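 note: 0% = vehicle and 100% = reference inhibitor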
Settings: Jurkat cells viability, ATP luminescence; at 8.3 µM; active compounds read high
About 160 (11%) of roughly 1,400 compounds were called active. Not all results are given here.
assay_metric: inhibition (%)
Write the value in % as a bare number.

Some solved cases for reference:
Clc1ccccc1SCc1nc2ccccc2[nH]1
7.62
c1ccc(CN=C2Nc3ccccc3CS2)nc1
0.23
O=C(Nc1ccc(S(=O)(=O)Nc2ncccn2)cc1)c1cncc(Br)c1
-8.56
NC1=NC(=O)S/C1=C\c1ccc(O)cc1
7
O=C(O)CCn1c(O)c(C=C2N=c3ccccc3=N2)sc1=S
0.39

Task: Report inhibition for `Cc1ccc(S(=O)(=O)N(C)C)cc1NC(=O)c1ccc(-n2cncn2)c([N+](=O)[O-])c1` please.
Result: -2.08

Task: Tell me the measured inhibition of `O=C(/C(=N\O)n1cncn1)c1ccc(Br)cc1Br` , please.
Result: -3.9

Task: Given the entry `O=C(Nc1ccccc1)Nc1nnc(COc2ccccc2F)s1` , report its measured inhibition.
Result: 5.35

Task: Look up inhibition for this compound: `Clc1ccc(-c2cc(C3CCNCC3)[nH]n2)c(Cl)c1`
Result: -0.28

Task: Record request: inhibition value, item Cc1ccc(NC(=O)C(C)c2cccc(C(=O)c3ccccc3)c2)cc1 (stereo unspecified)
Result: 1.82

Task: What value of inhibition has been reported for the following compound? `O=C(O)c1ccc(NS(=O)(=O)c2ccc3c(c2)C(=O)c2cc(S(=O)(=O)Nc4ccc(C(=O)O)cc4)ccc2-3)cc1`
Result: -0.7

Task: State the recorded inhibition for this entry: `Cc1ccc(S(=O)(=O)c2c[nH]c3ccc(Cl)cc3c2=O)cc1`
Result: 5.58

Task: Which inhibition value belongs to `O=C(NNc1cc(Cl)cc(Cl)c1)c1c(F)cccc1Cl` ?
Result: 1.84

Task: Fill in the blank: the reported inhibition of `O=C(CSc1nc2ccccc2[nH]1)N/N=C/C=C\c1ccccc1[N+](=O)[O-]` is ____.
Result: 0.15

Task: # lookup: inhibition of `O=S(=O)(NCc1ccc(Cl)cc1Cl)c1cccs1`
Result: -0.99

Task: Could you tell me which inhibition is on file for `NS(=O)(=O)c1ccc(CCNC(=O)Nc2ccc(Cl)cc2)cc1` ?
Result: 3.2

* * *

Experiment: Jurkat T cell cytotoxicity, cytotoxicity control for T. brucei MetRS inhibitor project, luminescence, high throughput (AID 624413);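 note: 0% = vehicle and 100% = reference inhibitor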
Conditions: Jurkat cells viability, ATP luminescence; at 8.3 µM; active compounds read high
In all, about 1,400 compounds went through this assay and about 160 (11%) were called active. These entries were drawn from the full list.
assay_metric: inhibition (%)
Give your result in % as a bare value.

Sample records with inhibition:
CCN1CCCC1CNc1ncnc2c1[nH]c1ccc(F)cc12 (stereo not given)
-1.19
CC(C)OCCCNc1ncnc2c1[nH]c1ccc(F)cc12
47.3
CCCCN(C)Cc1c(C)[nH]c2ccc(Cl)cc2c1=O
-0.56
CN(C(=O)CSc1nnc(Nc2ccccc2)s1)C1CCS(=O)(=O)C1 (stereo not given)
3.56

Below: the item to evaluate.
Task: Bench note: what inhibition did `CCO[C@@H]1OC(C(=O)NCc2nc3ccccc3[nH]2)=C[C@H](C2CCCCC2)[C@H]1CCCO` show?
Result: -0.5

* * *

Assay: Jurkat T cell cytotoxicity, cytotoxicity control for T. brucei MetRS inhibitor project, luminescence, high throughput (AID 624413);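 note: 0% = vehicle and 100% = reference inhibitor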
Details: Jurkat cells viability, ATP luminescence; at 8.3 µM; active compounds read high
Hit rate of the full screen: of about 1,400 compounds, about 160 (11%) were called active. Not all results are given here.
assay_metric: inhibition (%)
// return numeric value only (unit: %, not printed)

// known answers, use as guide
CCCCCn1nnnc1-c1nc2cc3ccccc3cc2[nH]c1=O
55.2
O=C(NCCN1CCOCC1)c1ccccc1N1C(=O)[C@@H]2Cc3c([nH]c4ccccc34)C(c3cccc(Cl)c3)N2C1=O (some centres undefined)
-0.67
CCN(CC)C(=O)C(=O)c1cn(CC(=O)NCc2ccc3c(c2)OCO3)c2ccccc12
2.71

Task: Quick one: inhibition for `COc1ccccc1-n1c(SCC(=O)Nc2ccc(Cl)cc2)nc(O)c(Cc2ccccc2)c1=O` ?
Result: -1.69

* * *

Experiment: Jurkat T cell cytotoxicity, cytotoxicity control for T. brucei MetRS inhibitor project, luminescence, high throughput (AID 624413);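 note: 0% = vehicle and 100% = reference inhibitor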
Details: Jurkat cells viability, ATP luminescence; at 8.3 µM; active compounds read high
Among all 1,400 compounds or so, about 160 (11%) were called active. These entries were drawn from the full list.
// reported inhibition for each item listed

Answered examples (4):
O=C(Nc1cccc([N+](=O)[O-])c1)N1CCc2ccccc2C1
17% (active)
O=C(Nc1ccc(Cl)cc1)N1CCc2[nH]c3ccccc3c2C1
1.46% (inactive)
Fc1ccc(NC(=S)N2CCc3[nH]c4ccccc4c3C2)cc1
-0.86% (inactive)
OCCNc1nc2ccccc2n1-c1ncnc2sc3c(c12)CCC3
9.96% (inactive)

Task: # lookup: inhibition of `O=C(CSCC(=O)Nc1cccc([N+](=O)[O-])c1)Nc1ccccc1`
Result: -0.93% (inactive)

Task: For the compound `O=C(Cn1c(NCCO)nc2ccccc21)c1ccc(Cl)cc1Cl` , what inhibition is on record?
Result: 4.95% (inactive)

Task: Need inhibition of `O=S(=O)(c1ccc(Br)cc1)N1CCC(c2nc3ccccc3[nH]2)CC1` , thanks.
Result: 35.4% (active)
